- EXPERIMENTAL_SETUP: in methyl acetate, 308.15 K
METRIC_NAME: solubility (mole fraction)

SMILES_ENTRY: Nc1cccc(C(=O)O)c1
EXPERIMENTAL_VALUE: 0.0128

###

- EXPERIMENTAL_SETUP: in isobutanol, 323.15 K
METRIC_NAME: solubility (mole fraction)

SMILES_ENTRY: Nc1cccc(C(=O)O)c1
METRIC_NAME: solubility (mole fraction)
EXPERIMENTAL_VALUE: 0.0158

###

- EXPERIMENTAL_SETUP: in n-propanol, 293.15 K

SMILES_ENTRY: Nc1cccc(C(=O)O)c1
solubility (mole fraction): 0.00804

###

- EXPERIMENTAL_SETUP: in n-propanol, 313.15 K

SMILES_ENTRY: Nc1cccc(C(=O)O)c1
solubility (mole fraction): 0.014

###

- EXPERIMENTAL_SETUP: in 1,4-dioxane, 323.15 K
METRIC_NAME: solubility (mole fraction)

SMILES_ENTRY: Nc1cccc(C(=O)O)c1
METRIC_NAME: solubility (mole fraction)
EXPERIMENTAL_VALUE: 0.0709

###

- EXPERIMENTAL_SETUP: in methanol, 283.15 K

SMILES_ENTRY: Nc1cccc(C(=O)O)c1
solubility (mole fraction): 0.012

###

- EXPERIMENTAL_SETUP: in ethanol, 288.15 K
METRIC_NAME: solubility (mole fraction)

SMILES_ENTRY: Nc1cccc(C(=O)O)c1
EXPERIMENTAL_VALUE: 0.00955

###

- EXPERIMENTAL_SETUP: in water, 293.15 K

SMILES_ENTRY: Nc1cccc(C(=O)O)c1
solubility (mole fraction): 0.000725

###

- EXPERIMENTAL_SETUP: in isobutanol, 318.15 K

SMILES_ENTRY: Nc1cccc(C(=O)O)c1
solubility (mole fraction): 0.0131

###

- EXPERIMENTAL_SETUP: in isopropanol, 298.15 K

SMILES_ENTRY: Nc1cccc(C(=O)O)c1
solubility (mole fraction): 0.00943

###

- EXPERIMENTAL_SETUP: in n-butanol, 313.15 K
METRIC_NAME: solubility (mole fraction)

SMILES_ENTRY: Nc1cccc(C(=O)O)c1
EXPERIMENTAL_VALUE: 0.0134

###

- EXPERIMENTAL_SETUP: in methanol, 293.15 K
METRIC_NAME: solubility (mole fraction)

SMILES_ENTRY: Nc1cccc(C(=O)O)c1
EXPERIMENTAL_VALUE: 0.0139

###

- EXPERIMENTAL_SETUP: in methanol, 318.15 K

SMILES_ENTRY: Nc1cccc(C(=O)O)c1
solubility (mole fraction): 0.0254

###

- EXPERIMENTAL_SETUP: in isopropyl acetate, 293.15 K
METRIC_NAME: solubility (mole fraction)

SMILES_ENTRY: Nc1cccc(C(=O)O)c1
EXPERIMENTAL_VALUE: 0.00526

###

- EXPERIMENTAL_SETUP: in acetone, 303.15 K
METRIC_NAME: solubility (mole fraction)

SMILES_ENTRY: Nc1cccc(C(=O)O)c1
EXPERIMENTAL_VALUE: 0.0375

###

- EXPERIMENTAL_SETUP: in methanol, 303.15 K

SMILES_ENTRY: Nc1cccc(C(=O)O)c1
solubility (mole fraction): 0.0166

###

- EXPERIMENTAL_SETUP: in acetonitrile, 298.15 K

SMILES_ENTRY: Nc1cccc(C(=O)O)c1
solubility (mole fraction): 0.00313

###

- EXPERIMENTAL_SETUP: in n-butanol, 308.15 K
METRIC_NAME: solubility (mole fraction)

SMILES_ENTRY: Nc1cccc(C(=O)O)c1
EXPERIMENTAL_VALUE: 0.0117

###

- EXPERIMENTAL_SETUP: in acetonitrile, 318.15 K

SMILES_ENTRY: Nc1cccc(C(=O)O)c1
solubility (mole fraction): 0.00664

###

- EXPERIMENTAL_SETUP: in isopropyl acetate, 283.15 K

SMILES_ENTRY: Nc1cccc(C(=O)O)c1
solubility (mole fraction): 0.00459

###

- EXPERIMENTAL_SETUP: in methyl acetate, 283.15 K

SMILES_ENTRY: Nc1cccc(C(=O)O)c1
solubility (mole fraction): 0.00731

###

- EXPERIMENTAL_SETUP: in methanol, 298.15 K
METRIC_NAME: solubility (mole fraction)

SMILES_ENTRY: Nc1cccc(C(=O)O)c1
METRIC_NAME: solubility (mole fraction)
EXPERIMENTAL_VALUE: 0.0145

###

- EXPERIMENTAL_SETUP: in water, 318.15 K

SMILES_ENTRY: Nc1cccc(C(=O)O)c1
solubility (mole fraction): 0.00153

###

- EXPERIMENTAL_SETUP: in isopropyl acetate, 303.15 K

SMILES_ENTRY: Nc1cccc(C(=O)O)c1
solubility (mole fraction): 0.00674

###

- EXPERIMENTAL_SETUP: in acetonitrile, 288.15 K
METRIC_NAME: solubility (mole fraction)

SMILES_ENTRY: Nc1cccc(C(=O)O)c1
METRIC_NAME: solubility (mole fraction)
EXPERIMENTAL_VALUE: 0.00225

###

- EXPERIMENTAL_SETUP: in isopropyl acetate, 288.15 K

SMILES_ENTRY: Nc1cccc(C(=O)O)c1
solubility (mole fraction): 0.00495

###

- EXPERIMENTAL_SETUP: in isopropyl acetate, 323.15 K
METRIC_NAME: solubility (mole fraction)

SMILES_ENTRY: Nc1cccc(C(=O)O)c1
EXPERIMENTAL_VALUE: 0.0135

###

- EXPERIMENTAL_SETUP: in 1,4-dioxane, 303.15 K

SMILES_ENTRY: Nc1cccc(C(=O)O)c1
solubility (mole fraction): 0.042

###

- EXPERIMENTAL_SETUP: in isobutanol, 293.15 K
METRIC_NAME: solubility (mole fraction)

SMILES_ENTRY: Nc1cccc(C(=O)O)c1
METRIC_NAME: solubility (mole fraction)
EXPERIMENTAL_VALUE: 0.00599

###

- EXPERIMENTAL_SETUP: in isopropanol, 323.15 K

SMILES_ENTRY: Nc1cccc(C(=O)O)c1
solubility (mole fraction): 0.023

###

- EXPERIMENTAL_SETUP: in n-butanol, 323.15 K

SMILES_ENTRY: Nc1cccc(C(=O)O)c1
solubility (mole fraction): 0.0175

###

- EXPERIMENTAL_SETUP: in water, 288.15 K
METRIC_NAME: solubility (mole fraction)

SMILES_ENTRY: Nc1cccc(C(=O)O)c1
EXPERIMENTAL_VALUE: 0.000628

###

- EXPERIMENTAL_SETUP: in n-propanol, 288.15 K

SMILES_ENTRY: Nc1cccc(C(=O)O)c1
solubility (mole fraction): 0.00675

###

- EXPERIMENTAL_SETUP: in acetone, 318.15 K
METRIC_NAME: solubility (mole fraction)

SMILES_ENTRY: Nc1cccc(C(=O)O)c1
METRIC_NAME: solubility (mole fraction)
EXPERIMENTAL_VALUE: 0.052

###

- EXPERIMENTAL_SETUP: in ethanol, 293.15 K

SMILES_ENTRY: Nc1cccc(C(=O)O)c1
solubility (mole fraction): 0.0107

###

- EXPERIMENTAL_SETUP: in n-propanol, 318.15 K
METRIC_NAME: solubility (mole fraction)

SMILES_ENTRY: Nc1cccc(C(=O)O)c1
EXPERIMENTAL_VALUE: 0.016

###

- EXPERIMENTAL_SETUP: in acetone, 323.15 K

SMILES_ENTRY: Nc1cccc(C(=O)O)c1
solubility (mole fraction): 0.0601

###

- EXPERIMENTAL_SETUP: in ethanol, 298.15 K

SMILES_ENTRY: Nc1cccc(C(=O)O)c1
solubility (mole fraction): 0.0117

###

- EXPERIMENTAL_SETUP: in acetonitrile, 303.15 K

SMILES_ENTRY: Nc1cccc(C(=O)O)c1
solubility (mole fraction): 0.00358

###

- EXPERIMENTAL_SETUP: in isopropanol, 293.15 K

SMILES_ENTRY: Nc1cccc(C(=O)O)c1
solubility (mole fraction): 0.00801

###

- EXPERIMENTAL_SETUP: in isopropyl acetate, 313.15 K
METRIC_NAME: solubility (mole fraction)

SMILES_ENTRY: Nc1cccc(C(=O)O)c1
METRIC_NAME: solubility (mole fraction)
EXPERIMENTAL_VALUE: 0.00917

###

- EXPERIMENTAL_SETUP: in acetonitrile, 308.15 K

SMILES_ENTRY: Nc1cccc(C(=O)O)c1
solubility (mole fraction): 0.00452

###

- EXPERIMENTAL_SETUP: in 1,4-dioxane, 318.15 K

SMILES_ENTRY: Nc1cccc(C(=O)O)c1
solubility (mole fraction): 0.0627
